The reported numbers originate from paper PMC3083228.

- TARGET_OR_SYSTEM: SpIH (Strongylocentrotus purpuratus, UniProt O76977)
- Sequence (O76977 1-767): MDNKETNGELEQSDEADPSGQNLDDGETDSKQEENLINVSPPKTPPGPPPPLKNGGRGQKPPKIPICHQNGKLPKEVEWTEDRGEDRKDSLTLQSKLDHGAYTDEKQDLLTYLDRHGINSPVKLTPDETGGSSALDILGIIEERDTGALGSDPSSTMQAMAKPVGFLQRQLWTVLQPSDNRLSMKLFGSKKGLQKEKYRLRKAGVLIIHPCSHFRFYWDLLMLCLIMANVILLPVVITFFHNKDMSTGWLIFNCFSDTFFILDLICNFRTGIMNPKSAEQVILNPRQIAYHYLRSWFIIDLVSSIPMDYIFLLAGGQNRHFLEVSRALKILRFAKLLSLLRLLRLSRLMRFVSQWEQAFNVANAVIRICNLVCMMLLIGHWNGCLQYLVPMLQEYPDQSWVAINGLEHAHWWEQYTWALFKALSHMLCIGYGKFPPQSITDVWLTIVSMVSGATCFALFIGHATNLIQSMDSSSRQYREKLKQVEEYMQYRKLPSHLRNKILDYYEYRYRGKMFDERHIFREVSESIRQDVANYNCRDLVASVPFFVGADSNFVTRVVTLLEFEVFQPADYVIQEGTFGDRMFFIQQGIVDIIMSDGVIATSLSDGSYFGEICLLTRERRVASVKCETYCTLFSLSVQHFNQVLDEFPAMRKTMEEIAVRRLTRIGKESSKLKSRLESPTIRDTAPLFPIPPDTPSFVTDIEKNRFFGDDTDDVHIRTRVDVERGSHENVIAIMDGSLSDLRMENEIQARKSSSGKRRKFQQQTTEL
EXPERIMENTAL_ENDPOINT: pIC50
pIC50 (log units): -log10 of the concentration in mol/L.

Could you tell me which pIC50 is on file for CCCCCCCC(=O)OC[C@H](COP(=O)(O)O[C@H]1[C@H](O)[C@@H](O)[C@H](OP(=O)(O)O)[C@@H](O)[C@H]1O)OC(=O)CCCCCCC ? 4.87
